Property Name: melting point

Task: Would you mind telling me what melting point value was observed for CSc1ncc(Cl)cc1C#N ?
Result: 147 to 149 °C

Task: NS(=O)(=O)c1ccc(NC(=O)CCl)c(Br)c1 , same question.
Result: 174 to 175 °C

Task: CCc1nc2cccc(C(=O)OC)c2n1Cc1ccc(-c2ccccc2-c2nc(=O)s[nH]2)cc1 , same question.
Result: 203 to 205 °C

Task: CN1Cc2c(C(N)=NO)ncn2-c2cccc(Br)c2C1=O , same question.
Result: 265 to 266 °C

Task: O=C=NCc1cccnc1 , same question.
Result: 141 to 146 °C

Task: COc1ccc2nc(Cl)nc(N(C)c3ccccc3)c2c1 , same question.
Result: 133 to 134 °C

Task: CN1Cc2c(Cl)cc(F)c(-n3c(=O)cc(C(F)(F)F)n(C)c3=O)c2O1 , same question.
Result: 218 to 219 °C

Task: CCOC(=O)C(=O)Nc1ccc(N(C)C)cc1O , same question.
Result: 259 to 260 °C

Task: COc1ccc(/C(=C\C=C\C(=O)NCCCCc2cccnc2)c2ccccc2OC)cc1 , same question.
Result: 164 to 165 °C

Task: Nc1c(Cl)cc(C(=O)C=Cc2ccncc2)c2c1OCCO2 , same question.
Result: 209 to 211 °C

Task: CCON=C(C(C)=NO)c1ccc(OC[Si](C)(C)c2ccc(F)cc2)cc1 , same question.
Result: 100 to 102 °C

Task: CNC(=S)N1CCN=C1COc1cccc(C)c1C , same question.
Result: 100 °C

Task: CC(CN=C1c2cccc3cccc(c23)N1C(c1ccccc1)c1ccccc1)Cn1ccnc1 (stereo unspecified) , same question.
Result: 51 to 56 °C

* * *

Property Name: melting point

Use these answered entries as a reference point.
Task: Would you mind telling me what melting point value was observed for CCOC(=O)C(C1c2ccccc2Sc2ccccc21)[N+](=O)[O-] (configuration not stated) ?
Result: 111 to 115 °C

Task: Cc1nc(OC(C)C)nc(C)c1N1CCCn2c1nc1c(Cl)ccc(C(OC(F)F)C(F)(F)F)c12 (configuration not stated) , same question.
Result: 227 to 230 °C

Task: CC(C)N1CCC(COc2ccc(-c3ccc(=O)[nH]n3)cn2)CC1 , same question.
Result: 188 to 191 °C

Task: COC(Cc1c(Br)cc(Br)c(C(N)=O)c1Br)C(=O)O (configuration not stated) , same question.
Result: 138 to 139 °C

Task: COC(=O)CCCc1c(-c2ccc(F)cc2)[nH]c2ccc(-c3ccc([N+](=O)[O-])cc3)cc12 , same question.
Result: 190 to 191 °C

---
Task: Would you mind telling me what melting point value was observed for ON=Cc1ccc2c(c1)Sc1ccccc1C=C2 ?
Result: 206 to 207 °C

Task: Nc1ncc(-c2ccccc2)nc1Sc1ccc(F)cc1 , same question.
Result: 161 to 164 °C

* * *

Overview of recorded melting point for various molecules

Task: Would you mind telling me what melting point value was observed for Cn1ccc2c1CC(c1ccccc1)CC2=O (stereo not drawn) ?
Result: 166 to 167 °C

Task: CCOc1c(C)ccc2c1c1cc(Br)ccc1n2C(=O)OC(C)(C)C , same question.
Result: 137 °C

Task: CCCCCCCCCCCCCCCOc1ccc(C(C)=O)o1 , same question.
Result: 67 to 68 °C

Task: CN(C)Cc1nc(CO)nn1-c1ccc(Cl)cc1C(O)c1ccccc1 (stereo not drawn) , same question.
Result: 121 to 123 °C

Please turn your attention to the following entry.
Task: Would you mind telling me what melting point value was observed for C[C@@H]1N(c2ccc(C#N)c(C(F)(F)F)c2)C(=O)C[C@]1(C)O ?
Result: 134 to 137 °C
